System: HOP-62 NSCLC
Test: NCI tumour cell line growth inhibition, 48 h
Endpoint label: GI50

The examples below pair each entry with its known result.
CC(=O)/C=C/c1ccc(N(C)Cc2ccc(C(C)(C)C)cc2)cc1 = 194000 nM
CC(=O)O[C@@H]1CC(=O)O[C@@H]2C[C@@H](CC/C(Cl)=C/C/C=C\1C)O[C@@H]2CO = > 25000 nM
CCOCC[P+](c1ccccc1)(c1ccccc1)c1ccccc1 = 29700 nM
CSc1ccc2c(c1)C(=O)c1c-2n(CCCN=[N+]=[N-])c(=O)c2cc([N+](=O)[O-])ccc12 = 623 nM
CCC1=C[C@H]2CN(CCc3c([nH]c4ccccc34)[C@@](C(=O)OC)(c3cc4c(cc3OC)N(C)[C@H]3[C@@](O)(C(=O)OC)[C@H](OC(C)=O)[C@]5(CC)[C@@H]6C[C@@H]6CN6CC[C@]43[C@@H]65)C2)C1 = 24.9 nM

Request: I have this molecule here, `CN(C)CCOc1cccc(NC2=C(Cl)C(=O)C(Nc3cccc(OCCN(C)C)c3)=C(Cl)C2=O)c1` , and I need its recorded GI50.
Response: 2100 nM

Request: Find the recorded GI50 belonging to O=C1[C@H](c2ccccc2)C2c3ccccc3CCN12 (some centres undefined) and report it.
Response: > 100000 nM

Request: What measured GI50 goes with `COc1ccc2c(c1)CC[C@@H]1[C@@H]2CC[C@]2(C)c3c(cc(C(=O)c4ccccc4)c4sccc34)C[C@@H]12` ?
Response: > 100000 nM

* * *

System: HT29 colon
Test: NCI tumour cell line growth inhibition, 48 h; in the data active = GI50 below about 0.43 µM; inactive = the rest
Where a SMILES comes first, the peptide text is derived from it. Bridges are numbered along the chain shown (N, C = ends). Roman numbers before positions name the chains, in order. [ ]: non-standard residue; d: D form. The star is where a group is joined. Heptadecanoyl = CCCCCCCCCCCCCCCCC(=O)*; Phg = N[CH](C(=O)O)c1ccccc1
Hi! Could you answer with just one of these? active, inactive

# count of solved cases: 5
O=C(O)c1cn(C2CC2)c2cc(N3CCN(C(=O)Nc4nc(-c5ccc(Cl)cc5)cs4)CC3)c(F)cc2c1=O = inactive
COc1cc2c(/C=C3/C(=O)Nc4c3ccc3ccccc43)c(Cl)[nH]c2cc1C = active
COc1ccc(C2SC(C)C(=O)N2NC(=O)C(O)c2ccccc2)cc1 (stereo unspecified) = inactive
CCNCCNc1cc(C2CCCC2)c(C#N)c2nc3ccccc3n12 = inactive
CCCNNC(=O)c1ccc(CNC(=O)/C=C/c2ccccc2)cc1 = active

Request: Assay result, entry CCN(CC)CCCC(C)Nc1ccnc2cc(Cl)c(SCc3ccccc3)cc12 (stereo unspecified) — outcome?
Response: active

Request: Query: recorded result category for `Nc1nn(C(=O)Nc2ccc(Cc3ccccc3)cc2)c2ccccc12` in this test
Response: inactive

Request: Dear colleague, could you share the recorded outcome for `COc1ccc2c(c1)CC[C@@H]1[C@@H]2CC[C@]2(C)c3c(cc(C(=O)c4ccccc4)c4sccc34)C[C@@H]12` when you have a moment?
Response: inactive

Request: Write down the call the test reported for this compound. Item: CCOC(=O)C1=C(N)Oc2cc(OC)ccc2C1c1ccc(F)c(F)c1 (stereo unspecified)
Response: inactive

Request: Any idea what this test logged for `COC(=O)/C(Br)=C/c1c[nH]c2ccc(Br)cc12` ?
Response: inactive

Request: Record lookup: outcome of this test for `COc1cccc(-c2cc(NCc3ccc4c(c3)OCO4)nc(N)n2)c1` ?
Response: active

Request: // outcome(item) with item = `COc1cc2c3c(n(CCCN4CCOCC4)c(=O)c2cc1OC)-c1cc2c(cc1C3=O)OCO2`
Response: inactive

Request: Test call, this compound: `O=CNc1ccc2c(c1)Cc1cc([N+](=O)[O-])ccc1-2`
Response: inactive

Request: Answer briefly: the call reported for Cc1ccc(C2CC(c3cccc(Nc4ccncc4)c3)=NN2c2ccc(Cl)cc2)cc1 (stereo unspecified) in this assay.
Response: inactive

Request: Can you look up the reported call for `Cc1ccc(S(=O)(=O)C2=C3C(=C(c4ccccc4)c4ccccc43)CN(S(=O)(=O)c3ccc(C)cc3)C2)cc1` for me?
Response: inactive

Request: Lab log entry: `COc1ccc2oc(-c3ccc(Cl)cc3)c(N3CCN(C)CC3)c2c1` — outcome as called in the assay?
Response: inactive

Request: Give the logged outcome of this assay for the following compound: `CC(=O)/C=C/c1ccc(N(C)Cc2ccc(C(C)(C)C)cc2)cc1`
Response: inactive

Request: Tell me the assay call for `N#CC(C#N)=Cc1ccc(-c2ccc(-c3nc4ccccc4s3)cc2)s1` please.
Response: inactive

Request: Look up the recorded call for `O=C(Nc1cc(Cl)cc(Cl)c1)c1ccc(NC2=C(Cl)C(=O)N(Cc3ccccc3)C2=O)cc1` in this test.
Response: inactive

Request: Test call, this compound: CCCCCCCCCCCCCCCCC(=O)N1CCCC1C(=O)NCC(=O)NC(C(=O)N1CCCC1C(=O)NC(CO)C(=O)NC(Cc1ccc(O)cc1)C(=O)NC(CCCCNC(=O)C1CCCN1C(=O)C(CCCCN)NC(=O)C(CCCCN)NC(=O)C(CCCCN)NC(=O)C(CCCNC(=N)N)NC(=O)C(CCCCN)NC(=O)C(N)C(C)C)C(=O)NC(CC(C)C)C(=O)NC(CCCNC(=N)N)C(=O)N1CCCC1C(=O)NCC(N)=O)c1ccccc1 (stereo unspecified) (I: Heptadecanoyl-PG[Phg]PSYKLRPG-NH2 / II: H-VKRKKKP; amide I:7-II:C; configuration not given here)
Response: inactive

Request: Which result was noted for this compound in the test: COc1ccc2c(c1)N(CCO)C1=C(C(=O)OC1)C2c1cccc(Br)c1 (stereo unspecified)
Response: active

* * *

Test system: DMS 114 small cell lung
Experiment: NCI tumour cell line growth inhibition, 48 h
Listed compounds paired with reported TGI

COc1cc([C@@H]2c3cc4c(cc3[C@@H](NC(=O)c3ccc([N+](=O)[O-])cc3)C3COC(=O)[C@@H]32)OCO4)cc(OC)c1O (stereo not given in full) = 2.35 µM
C/C(CC(=O)Nc1ccc([N+](=O)[O-])cc1)=N/N=C(N)N = > 100 µM
O=[N+]([O-])c1ccc(C2N3CCCCC3[C@@H]3c4[nH]c5ccccc5c4CCN23)cc1 (stereo not given in full) = 22 µM
C/C(CN1C(=O)c2ccccc2C1=O)=N\NS(C)(=O)=O = > 100 µM
N#Cc1ccccc1/C=N/O = > 100 µM

Request: Hi! What's the reported TGI for COC(=O)C1CCc2nnc(-c3cccnc3)n21 (stereo not given) on DMS 114 small cell lung?
Response: > 100 µM

Request: Record lookup: for DMS 114 small cell lung, what TGI belongs to `Cc1cc(NC(=O)C(=O)Cc2nc3ccccc3s2)ccc1Cl` ?
Response: > 100 µM

Request: Which measured TGI belongs to `O=C1CSc2ccncc2N1` , tested on DMS 114 small cell lung?
Response: > 100 µM

Request: GET /values?readout=TGI&system=DMS 114 small cell lung&item= `[O-][N+]1=C(c2ccccc2)COc2ccccc21`
Response: > 100 µM

Request: Give TGI (DMS 114 small cell lung) of the following compound: `O=c1[nH]c(C2CCCCC2)nc2cc(Cl)ccc12`
Response: > 100 µM

* * *

Tested on: NCI-H522 lung
Assay: NCI tumour cell line growth inhibition, 48 h
Endpoint label: TGI (µM)
Could you give me the number in µM? Just the number is fine.

Before answering, review these 3 worked examples.
Cn1cc(C2=C(c3cccc(NCC(O)CO)c3)C(=O)NC2=O)c2cc(Cl)ccc21 (stereo not given) = 11.4
COc1ccc2oc(-c3ccc(Cl)cc3)c(N3CCN(C)CC3)c2c1 = 3.91
CCN1CCN(Cc2ccc3cc(C(=O)Nc4cc(NC(=O)c5ccc6c(c5)OCCO6)ccc4F)ccc3n2)CC1 = 0.427

Then this compound:
Request: Requested read-out: TGI. Entry: `O=C(NC1CCN(Cc2ccccc2)CC1)c1ccccc1I`
Response: 27.6

* * *

TGI overview
Test system: SK-MEL-2 melanoma
Assay: NCI tumour cell line growth inhibition, 48 h

Example molecules with recorded TGI:
Clc1ccc(CSCc2ccc(Cl)cc2Cl)c(Cl)c1 = 51.3 µM
COc1cc([C@@H]2c3cc4c(cc3[C@H](O)[C@H]3COC(=O)[C@@H]23)OCO4)cc(OC)c1OC = > 100 µM
COc1ccc2c(c1)N(CCO)C1=C(C(=O)OC1)C2c1cccc(Br)c1 (stereo unspecified) = 3.24 µM
COc1cc(C2c3cc4c(cc3OC(O)C2C)OCO4)cc(OC)c1O (stereo unspecified) = > 100 µM
CNC(=S)N/N=C(/C)CCC/C(C)=N/NC(=S)NC = > 100 µM

Request: Which measured TGI value corresponds to `COc1ccc2oc(-c3ccc(Cl)cc3)c(N3CCN(C)CC3)c2c1` ?
Response: 4.4 µM
